Data provenance is ChEMBL document CHEMBL1961873.

# inhibition values compiled below
target: Serine/threonine-protein kinase SIK1 (Homo sapiens); details: at 0.1 µM;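 further: reported as mean inhibition, part of the GSK PKIS screen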
ASSAY_ENDPOINT: inhibition (%)

test_smiles=O=C(Nc1n[nH]c2nnc(-c3cccnc3)cc12)C1CC1 test_value=1.74
test_smiles=Cc1nnc(-c2cccc(-c3ccc(C(=O)NCC4CC4)cc3)c2)o1 test_value=7.04
test_smiles=O=C(O[C@H]1CN[C@H](C#Cc2cc3ncnc(Nc4ccc(OCc5cccc(F)c5)c(Cl)c4)c3s2)C1)N1CCOCC1 test_value=2.74
test_smiles=NS(=O)(=O)c1ccc(N/N=C2\C(=O)Nc3ccc(C(=O)NCc4ccncc4)cc32)cc1 test_value=3.99
test_smiles=OCCCNc1nccc(-c2c(-c3ccc(F)cc3)nn3cc(C(F)(F)F)ccc23)n1 test_value=5.25

###

inhibition overview
molecular target: Receptor-type tyrosine-protein kinase FLT3 (Homo sapiens) (UniProt P36888); details: at 1 µM;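 further: values are mean percent inhibition of FLT3 kinase activity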
Sequence (P36888 whole entry): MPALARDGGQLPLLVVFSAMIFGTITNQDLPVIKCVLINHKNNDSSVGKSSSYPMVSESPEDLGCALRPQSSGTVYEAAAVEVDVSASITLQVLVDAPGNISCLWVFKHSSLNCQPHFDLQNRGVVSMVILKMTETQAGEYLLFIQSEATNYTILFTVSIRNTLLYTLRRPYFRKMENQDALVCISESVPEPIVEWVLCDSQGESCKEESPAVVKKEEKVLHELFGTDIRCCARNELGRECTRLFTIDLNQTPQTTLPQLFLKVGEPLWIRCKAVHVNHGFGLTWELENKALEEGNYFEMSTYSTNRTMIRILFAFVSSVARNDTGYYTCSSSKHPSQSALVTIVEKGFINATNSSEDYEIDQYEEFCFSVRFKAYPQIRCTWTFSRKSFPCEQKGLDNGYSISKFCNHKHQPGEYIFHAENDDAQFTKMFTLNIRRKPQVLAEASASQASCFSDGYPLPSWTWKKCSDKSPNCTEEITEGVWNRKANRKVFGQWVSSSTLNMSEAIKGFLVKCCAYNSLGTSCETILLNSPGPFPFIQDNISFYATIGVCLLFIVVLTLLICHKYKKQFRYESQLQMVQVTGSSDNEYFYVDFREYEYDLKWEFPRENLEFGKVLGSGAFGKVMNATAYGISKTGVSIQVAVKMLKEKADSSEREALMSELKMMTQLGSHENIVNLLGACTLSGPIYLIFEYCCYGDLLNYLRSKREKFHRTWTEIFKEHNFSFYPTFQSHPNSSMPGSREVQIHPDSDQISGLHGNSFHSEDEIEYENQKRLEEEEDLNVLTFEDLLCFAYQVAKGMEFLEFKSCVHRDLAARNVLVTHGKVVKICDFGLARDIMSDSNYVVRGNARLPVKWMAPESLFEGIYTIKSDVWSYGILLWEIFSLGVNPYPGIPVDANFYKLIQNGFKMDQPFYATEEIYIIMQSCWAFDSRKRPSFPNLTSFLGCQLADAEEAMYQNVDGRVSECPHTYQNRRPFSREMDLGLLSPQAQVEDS
ASSAY_ENDPOINT: inhibition (%)

compound=O=C(O[C@H]1CN[C@H](C#Cc2cc3ncnc(Nc4ccc5c(cnn5Cc5ccccc5)c4)c3s2)C1)N1CCOCC1 test_value=-3.41
compound=CS(=O)(=O)Nc1ccc(-c2ccc3c(NC(=O)C4CC4)n[nH]c3c2)cc1 test_value=5.66
compound=CN(c1ccc(NC(=O)NCCN2CCOCC2)cc1)c1ccnc(Nc2ccc(CS(C)(=O)=O)cc2)n1 test_value=83.7
compound=O=C(O[C@H]1CN[C@H](C#Cc2cc3ncnc(Nc4ccc5c(ccn5Cc5cc(F)ccc5F)c4)c3s2)C1)N1CCOCC1 test_value=2.83
compound=CN(C)CCNC(=O)Nc1ccc(N(C)c2ccnc(Nc3ccc(CS(C)(=O)=O)cc3)n2)cc1 test_value=58.6
compound=O=C(O[C@H]1CN[C@H](C#Cc2cc3ncnc(Nc4ccc(OCc5cccc(F)c5)c(Cl)c4)c3s2)C1)N1CCOCC1 test_value=2.29
compound=c1cnn2ncc(-c3ccnc(NCCCN4CCOCC4)n3)c2c1 test_value=1.48
compound=COc1c(C(N)=O)cc(-c2ccc(Cl)cc2)cc1-c1ccc(S(N)(=O)=O)cc1 test_value=3.25
compound=Cc1nnc(-c2cccc(-c3ccc(C(=O)NCC4CC4)cc3)c2)o1 test_value=4.66
compound=NS(=O)(=O)c1cccc(N/C=C2\C(=O)Nc3ccccc32)c1 test_value=36.4
compound=CC1(C)CC(n2cnc(-c3ccc(F)cc3)c2-c2ccnc(N)n2)CC(C)(C)N1 test_value=-0.24
compound=Cc1cc(O)cc(C)c1/C=C/c1cncc(C(N)=O)c1 test_value=2.11
compound=CCOc1ccc2c(-c3ccnc(Nc4cc(OC)cc(C(F)(F)F)c4)n3)cnn2n1 test_value=15.1
compound=CNC(=O)c1sc(-n2cnc3cc(OC)c(OC)cc32)cc1OCc1ccccc1C(F)(F)F test_value=3.19
compound=CCS(=O)(=O)c1ccc(OC)c(Nc2ncc(-c3cccc(C(C)=O)c3)o2)c1 test_value=69.8
compound="CC1=C(C(=O)Nc2ccc3[nH]nc(C)c3c2)C(c2ccc(C(F)(F)F)cc2)CC(=O)N1 (centres undefined)" test_value=3.38
compound=COc1cc(Nc2ncc(-c3ccccc3)o2)cc(OC)c1 test_value=90.5
compound=Cc1cc(O)cc(C)c1/C=C/c1cncc(C(=O)OC(C)(C)C)c1 test_value=1.9
compound=O=C(Nc1n[nH]c2nnc(-c3cccnc3)cc12)C1CC1 test_value=1.54
compound=CCCNc1cccc(-n2ncc3c(N/N=C/c4ccncc4)ncnc32)c1 test_value=17.6
compound=COc1cccc(Nc2nccc(-c3cnn4ncccc34)n2)c1 test_value=78.9
compound=COC(=O)Nc1nc2ccc(Oc3ccc(NC(=O)Nc4cc(C(F)(F)F)ccc4F)cc3)cc2s1 test_value=47.1
compound=COc1cc2c(cc1Nc1nc(Nc3cccc(F)c3C(N)=O)c3cc[nH]c3n1)N(C(=O)CN1CCN(C(C)C)CC1)CC2 test_value=0.93
compound=c1ccc(-c2n[nH]cc2-c2ccnc(-c3ccc(OCCn4ccnc4)cc3)c2)nc1 test_value=2.15
compound=COc1cccc(-n2ncc3c(N/N=C/c4ccc(C(=O)NCCN(C)C)cc4)ncnc32)c1 test_value=54.9
compound=OCCCNc1nccc(-c2c(-c3ccc(F)cc3)nn3cc(C(F)(F)F)ccc23)n1 test_value=3.11
compound=Fc1cccc(COc2ccc(Nc3ncncc3C#Cc3ccccc3)cc2Cl)c1 test_value=5.4
compound=CC(C)c1ccc(-c2cc(-c3c[nH]nc3-c3ccccn3)ccn2)cc1 test_value=2.26
compound=NC(=O)c1ccc2c(-c3ccnc(NCCCO)n3)c(-c3ccc(F)cc3)nn2c1 test_value=5.06
compound=COc1cc(N2CCN(C(C)C)CC2)ccc1Nc1nc(Nc2cccc(F)c2C(=O)O)c2cc[nH]c2n1 test_value=10.3
compound=CS(=O)(=O)CCNCc1ccoc1-c1ccc2ncnc(Nc3ccc(OCc4ccccc4)cc3)c2c1 test_value=6.53
compound="CC1=C(C(=O)Nc2ccc3[nH]ncc3c2)C(c2ccc(F)cc2)N=C(c2ccc(C(F)(F)F)nc2)N1 (centres undefined)" test_value=4.45
compound=CCS(=O)(=O)c1ccc(OC)c(Nc2ncc(-c3cccc(F)c3)o2)c1 test_value=74.5
compound=COc1cc(N2CCN(C(C)C)CC2)ccc1Nc1nc(Nc2cccc3ncccc23)c2cc[nH]c2n1 test_value=1.34
